# Test target: T1, MD50 protein
# T1 construct: range 487-580; also called proximal membrane fragment of mesothelin
# T1 sequence (Q13421 495-588): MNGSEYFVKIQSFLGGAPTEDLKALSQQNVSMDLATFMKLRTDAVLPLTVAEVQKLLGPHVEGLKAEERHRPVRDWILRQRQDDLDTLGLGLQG
# Assay info: ELISA, antigen coated, TG1 supernatant; also: test concentration or dose not given here
For each entry below, report its ELISA (OD450) value.
Give bare numbers, in OD450.

Binder: M119 (VHH, Nanoantibody in TG1 supernatant in the screening ELISA; also called clone M119) VHH: EVQLVESGGGLVQPGGSLRLSCVASGSDLSFDAMGWYRQFSATVRERQLVVATSRDGRIYYGDSVKGRFTASRDNLKNSVDLEMNNLKPEDTAIYYCAAGDDPKNYDWGPGTQVTVSS
Units of measure: OD450
ELISA (OD450): 1.46
//
Binder: M001 (VHH, Nanoantibody in TG1 supernatant in the screening ELISA; also called clone M001) VHH: EVQLVESGGGLVQAGGSLRLSCAASGSIFNINAMGWYRQAPGKEWERELVATISSSNSDNTYYKDSVKGRFTISTNTAKNTWYLQMNSLKPEDTAMYYCAAENYDRKDRYWGQGTQVTVSS
Units of measure: OD450
ELISA (OD450): 1.35
//
Binder: M344 (VHH, Nanoantibody in TG1 supernatant in the screening ELISA; also called clone M344) VHH: QVQLVESGGGLVQSGGSLRLSCVASGSAFSFDAMGWYRQFSATRRERQLVVATSRDGRTYYADSVKGRFTATRDNSKNSLYLEMNSLKPEDTAIYYCAAGDDPKNYSWGQGTQVTVSS
Units of measure: OD450
ELISA (OD450): 2.08
//
Binder: M003 (VHH, Nanoantibody in TG1 supernatant in the screening ELISA; also called clone M003) VHH: QVQLVESGGGLVQAGGSLRLSCTASGNIFSINAMGWYRQPPGKEWERELVATISSTNSDNTYYKESVKGRFTISTNTAKNTWYLQMNSLKPEDTAMYYCAAENFDRKDRYWAQGTQVTVSS
Units of measure: OD450
ELISA (OD450): 1.73
//
Binder: M044 (VHH, Nanoantibody in TG1 supernatant in the screening ELISA; also called clone M044; M044 antibody) VHH: QVQVVESGGGFVQAGGSLRLSCAASTPIISIAYMGWYRQISEKERQLVATINSGGKTYYADSVKGRFTISRDNAKNTLYLQMNMLKPEDTGMYYCAASNKDYNDYDPDWGQGTQVTVSS
Units of measure: OD450
ELISA (OD450): 2.04

Return reported ELISA (OD450) values for all items listed beneath this line.
1. M005 (VHH, Nanoantibody in TG1 supernatant in the screening ELISA; also called clone M005) VHH: EVQLVESGGGWVQSGGSLRLACAASGSSFGLNVVGWYRQAPDKQRELVASIGNGGRTTDYADSVKGRFTISSDNAKNTVFLQMNDLKPEDTAVYYCHLRASVTKGYWGQGTQVTVSS
2. M032 (VHH, Nanoantibody in TG1 supernatant in the screening ELISA; also called clone M032) VHH: EVQLVESGGGSVQAGGSLKISCAASGSVIDIGAMGWYRHITEKERKLVATINAGGNTYYADSVKGRFTISRDNAKYTVYLQMNSLKPEDTAMYYCAAEDINYTGTEAYYWGQGTQVTVSS
3. M047 (VHH, Nanoantibody in TG1 supernatant in the screening ELISA; also called clone M047) VHH: QVQLVETGGGSVQAGGSLRLSCAASGSIASIDAMGWYRQVPGKEWERELVATISSSNSDNKYYKDSVKGRFTISTNIAKNTWYLQMNNLKPEDTAMYYCAAEDYDTKDRFWGQGTQVTVSS

1. 1.03
2. 1.72
3. 2.07
